System: MIWI (PIWIL1) piRISC loaded with L1MC piRNA (30 nt);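 further: 1 nM active piRISC with 0.1 nM target library at 33 °C single turnover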
procedureText: pre-steady-state target cleavage rate (min^-1); higher = faster piRNA-guided slicing of the target
experimentalParameters: guide: L1MC piRNA 5'p-UAACUAAAUACUAUGCAAGCUGUAGGUCCU; auxiliary factor: 500 nM mouse GTSF1
Whole data set: some 8,200 sequences, median “pre-steady-state target cleavage rate” near 0.024, cut for the highest 2% near 1.3. This excerpt belongs to a sample that is enriched for the highest values.
Record t whenever pre-steady-state target cleavage rate is at 1 or higher; record f when lower.

Would you please look over these solved cases?
[[record]]
residuestring = "UCGACCUACACGCUUGCAUAGUAUUUAGUUA"
group = "t"

[[record]]
residuestring = "UCCUGGUACAGCUUGGAUAGUAUUUAGUAA"
group = "f"

[[record]]
residuestring = "UCCUCCUACAGCUUCGAUAGUAUUUAGAAA"
group = "f"

[[record]]
residuestring = "UGGACCCACAGCUUGCAUAGUAUUUAGUUA"
group = "t"

[[record]]
residuestring = "UCGACCCACAGCUUGCAUAGUAUUUAGUUA"
group = "t"

[[record]]
residuestring = "UCCUGCAUCAGCUUGCAUAGUAUUUAGUUA"
group = "t"

[[record]]
residuestring = "UCCUCCUACAGCUUGCAUAGUUUUUAGAUA"
group = "f"

[[record]]
residuestring = "UGCACCUACACCUUGCAUAGUAUUUAGUUA"
group = "f"

[[record]]
residuestring = "UCCUCCUACAGCUUGCAUAGUAUCUUAGUUA"
group = "f"

[[record]]
residuestring = "UGGACCACAGCUUGCAUAGUAUUUAGUUA"
group = "t"


Check if pre-steady-state target cleavage rate >= 1 (inclusive). Item: UCCUGGAUCAGCUUGCAUACUUUUUAGUUA
f

Does the sequence UCGACCUACAGCAAGCAUAGUAUUUAGUAA have recorded pre-steady-state target cleavage rate that is 1 or more?
f

Determine whether this sequence has pre-steady-state target cleavage rate no lower than 1: UGGACCUACGCUUGCAUAGUAUUUAGUUA
t

Reported pre-steady-state target cleavage rate at or above 1? UCGACCUACAGCAAGCAUAGUAUUUAGUUA
t

---

Below, each of the sequences is paired with its reported pre-steady-state target cleavage rate value.
Tested on: MIWI (PIWIL1) piRISC loaded with L1MC piRNA (30 nt);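 further: 1 nM active piRISC with 0.1 nM target library at 33 °C single turnover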
procedureText: pre-steady-state target cleavage rate (min^-1); higher = faster piRNA-guided slicing of the target
experimentalParameters: guide: L1MC piRNA 5'p-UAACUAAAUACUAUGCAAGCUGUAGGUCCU; auxiliary factor: none (no GTSF1)
The full ranking holds about 8,200 sequences; the median of “pre-steady-state target cleavage rate” is about 0.024, and the highest 2% start at about 1.3. This is one part of a sample in which the highest values are shown more often than they occur.
Just the number, please, no unit attached.

# example entries with known answers
[[record]]
residuestring = "AGGACCUACAGCUUGCAUAGUAUAUUAGUUA"
experimentalvalue = 0.0609

[[record]]
residuestring = "UGGAGCCUACAGCUUGCAUAGUAUUUAGUUA"
experimentalvalue = 0.0757

[[record]]
residuestring = "AGGACCUACAGCUUGGAUAGUAUUAAGUUA"
experimentalvalue = 0.0226

[[record]]
residuestring = "UCGAGCUACAGCAUGCAUAGUAUUUAGUUA"
experimentalvalue = 0.0332

[[record]]
residuestring = "UCCUGGAACACUUGCAUAGUAUUUAGUUA"
experimentalvalue = 0.0132

[[record]]
residuestring = "UCGACCUACUGCUUGCAUAGUAUUUACUUA"
experimentalvalue = 0.0322

[[record]]
residuestring = "UGGAGCUACAGCAUGCAUAGUAUUUAGUUA"
experimentalvalue = 0.0429

[[record]]
residuestring = "AGGACCUACAGCUUGCAUAGUAUAUAGUUA"
experimentalvalue = 0.0667

[[record]]
residuestring = "UGGACCUACAGCUUGCAUAGUAUUAGUUA"
experimentalvalue = 0.00299

[[record]]
residuestring = "AGGACCUACAGCUUGCAAAGUAUAUAGUUA"
experimentalvalue = 0.0238


Recorded pre-steady-state target cleavage rate of UCGACCUACAGCUAGGAUAGUAUUUAGUUA , please.
0.00874

Fill in the blank: the reported pre-steady-state target cleavage rate of UGGAGCUACAGCUUGCAUAGUAUUUAGUAA is ____.
0.0465

What value of pre-steady-state target cleavage rate has been reported for the following sequence? UGGACCUACAGCUAGGAUAGUAUUUAGUUA
0.00938

---

Test system: MIWI (PIWIL1) piRISC loaded with L1MC piRNA (30 nt);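 further: 1 nM active piRISC with 0.1 nM target library at 33 °C single turnover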
procedureText: pre-steady-state target cleavage rate (min^-1); higher = faster piRNA-guided slicing of the target
experimentalParameters: guide: L1MC piRNA 5'p-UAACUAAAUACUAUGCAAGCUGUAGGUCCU; auxiliary factor: 500 nM mouse GTSF1
The full ranking holds about 8,200 sequences; the median of “pre-steady-state target cleavage rate” is about 0.024, and the highest 2% start at about 1.3. This is one part of a sample in which the highest values are shown more often than they occur.
Classification field. Basis: pre-steady-state target cleavage rate. Definitions: zone 1: < 0.3; zone 2: ≥ 0.3 and < 0.7; zone 3: ≥ 0.7

[[record]]
residuestring = "UCCUGCUACAGCUUGCAUAGAAUUUACAAA"
group = "zone 2"

[[record]]
residuestring = "UGCACCUACAGCUUGCAUAGUAUUUUGUUA"
group = "zone 3"

[[record]]
residuestring = "UGGACCAUGAGCUUGCAUAGUAUUUAGUAA"
group = "zone 2"

[[record]]
residuestring = "UCCUGCAACAGCUUGCAUAGAAUUUAGUUA"
group = "zone 2"

[[record]]
residuestring = "UCGACCUACAGCUUGCAUAGUAAUAAGUUA"
group = "zone 2"


Could you place AGGACCUAGAGCUUGCAUAGUUUUUAGUUA in its proper category? Many thanks.
zone 2

Category lookup for the sequence UCCUGGAACAGGUAGCAUAGUAUUUAGUUA
zone 1

For this sequence, which bin applies? UCCUGGAUCACGUUGCAUAGUAUUUAGUAA
zone 1

GET /class?item= UCCUGCUACAGCUUGCUUAGUAUAUAGUUA
zone 2

Assign a category based on measured pre-steady-state target cleavage rate for UGGACGUUCAGCUUGCAUAGUAUUUAGUUA and give only the class name.
zone 3

Lab note: which band did UCCUGGAUGUCGUUAGCAUAGUAUUUAGUUA land in?
zone 1

Class (by measured pre-steady-state target cleavage rate) for UCCACCUACAGCUUGCAUAGUAUUUAGUUA [g2:g27:cont:t1A]
zone 3

---

Test system: MIWI (PIWIL1) piRISC loaded with L1MC piRNA (30 nt);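 further: 1 nM active piRISC with 0.1 nM target library at 33 °C single turnover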
procedureText: pre-steady-state target cleavage rate (min^-1); higher = faster piRNA-guided slicing of the target
experimentalParameters: guide: L1MC piRNA 5'p-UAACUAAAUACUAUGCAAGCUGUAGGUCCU; auxiliary factor: none (no GTSF1)
The full ranking holds about 8,200 sequences; the median of “pre-steady-state target cleavage rate” is about 0.024, and the highest 2% start at about 1.3. For the sample, the highest values were picked, then their nearest neighbours and some sequences at random.
attributeMeasured: pre-steady-state target cleavage rate
Respond numerically, and do not add a unit to the figure.

[[record]]
residuestring = "UCCUGGUACAGCAUGCAUAGUAAUUAGUUA"
attributemeasured = "pre-steady-state target cleavage rate"
experimentalvalue = 0.0118

[[record]]
residuestring = "UCCUCCAACAGCUUGCUUAGUAUUUAGUUA"
attributemeasured = "pre-steady-state target cleavage rate"
experimentalvalue = 0.0363

[[record]]
residuestring = "UCGACCAACAGCUUGCAUUGUAUUUAGUUA"
attributemeasured = "pre-steady-state target cleavage rate"
experimentalvalue = 0.0383

[[record]]
residuestring = "UCGACCAACAGCUUGCAAAGUAUUUAGUUA"
attributemeasured = "pre-steady-state target cleavage rate"
experimentalvalue = 0.0448

[[record]]
residuestring = "AGGACCUUCAGCUUCCAUAGUAUUUAGUUA"
attributemeasured = "pre-steady-state target cleavage rate"
experimentalvalue = 0.00546

[[record]]
residuestring = "UCGACCUAGAGCUUGGAUAGUAUUUAGUUA"
attributemeasured = "pre-steady-state target cleavage rate"
experimentalvalue = 0.0475


Requested field: pre-steady-state target cleavage rate. Item: AGGACCUACAGCUAGCAUAGUAUUUAGAAA
0.00411

Quick one: pre-steady-state target cleavage rate for UCCUGGAUGACUUGCAUAGUAUUUAGUUA ?
0.0206

Can you look up the measured pre-steady-state target cleavage rate of UCGACCUUCAGCUUGGAUAGUAUUUAGUUA for me?
0.0525

---

Tested on: MIWI (PIWIL1) piRISC loaded with L1MC piRNA (30 nt);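 further: 1 nM active piRISC with 0.1 nM target library at 33 °C single turnover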
procedureText: pre-steady-state target cleavage rate (min^-1); MIWI and MILI are mouse PIWI proteins and EfPiwi is from a freshwater sponge; tags in brackets are library labels; higher = faster piRNA-guided slicing of the target;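 further: 1 nM active piRISC with 0.1 nM target library at 33 °C single turnover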
experimentalParameters: guide: L1MC piRNA 5'p-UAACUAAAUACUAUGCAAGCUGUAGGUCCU; auxiliary factor: 500 nM mouse GTSF1
Whole data set: some 8,200 sequences, median “pre-steady-state target cleavage rate” near 0.024, cut for the highest 2% near 1.3. The full list was thinned out, with the highest values kept by preference.
Reported pre-steady-state target cleavage rate by item:
Could you keep your reply to the number by itself?

Worked set:
[[record]]
residuestring = "UCGACCUACAGCUAGGAUAGUAUUUAGUUA"
targetortestsystem = "MIWI (PIWIL1) piRISC loaded with L1MC piRNA (30 nt)"
attributemeasured = "pre-steady-state target cleavage rate"
experimentalvalue = 1.29

[[record]]
residuestring = "UGGACCUACAGUUGCAUAGUAUUUAGUUA"
targetortestsystem = "MIWI (PIWIL1) piRISC loaded with L1MC piRNA (30 nt)"
attributemeasured = "pre-steady-state target cleavage rate"
experimentalvalue = 1.06

[[record]]
residuestring = "UCCUGGAUCAGGUAGCAUAGUAUUUAGUUA"
targetortestsystem = "MIWI (PIWIL1) piRISC loaded with L1MC piRNA (30 nt)"
attributemeasured = "pre-steady-state target cleavage rate"
experimentalvalue = 0.0152

[[record]]
residuestring = "UCCUGGAACAGCUUGCAUAGUAUUAUGUUA"
targetortestsystem = "MIWI (PIWIL1) piRISC loaded with L1MC piRNA (30 nt)"
attributemeasured = "pre-steady-state target cleavage rate"
experimentalvalue = 0.169

[[record]]
residuestring = "AGGACCUACAGCUUGCAUAGAAUUUAGUUA"
targetortestsystem = "MIWI (PIWIL1) piRISC loaded with L1MC piRNA (30 nt)"
attributemeasured = "pre-steady-state target cleavage rate"
experimentalvalue = 0.559


I would be grateful if you could share the reported pre-steady-state target cleavage rate for AGGAUCUACAGCUUGCAUAGUAUUUAGUUA .
1.7

Look up pre-steady-state target cleavage rate: UGGACCUACAGCUUGGAUAGUAUUUAGUAA
0.851

Suppose we examine the sequence UCCUGCUACAGCUUGCAUAGUUAUUACAAA ; what pre-steady-state target cleavage rate value has been reported?
0.0101
